assayed.system: Bile acid receptor (Homo sapiens)
procedure.summary: qHTS assay to identify small molecule agonists of the farnesoid-X-receptor (FXR) signaling pathway (AID 743220); note: % is set by controls: 0 for no effect and ±100 for the full control effect
test.conditions: HEK293T FXR-UAS-bla, beta-lactamase FRET ratio, 16 h; series mostly up to 62.6 µM
Results filed as inconclusive are left out. Calls of active or inactive are those of the source. Calls come from the whole dose curve; as a rule, active = well fitted activation curve with a large enough effect in the signal ratio in the repeat runs (not every such curve was filed as active); inconclusive = weak or mixed curves, or effect the other way; inactive = flat fitted curve, though single readings scatter; the % refers to the signal ratio.
endpoint: activation

Field: example entries. Status: answers known.
CC(C)C(=O)c1c(C(C)C)nn2ccccc12    inactive
CNC1(C)C2CCC(C2)C1(C)C (configuration not stated)    inactive
CCCCN(CCO)CCCC    inactive
CC1COC(=O)O1 (configuration not stated)    inactive
CCC[C@H](N[C@@H](C)C(=O)N1[C@H](C(=O)O)C[C@@H]2CCCC[C@@H]21)C(=O)OCC    inactive
Oc1c(Cl)cc(Cl)cc1Sc1cc(Cl)cc(Cl)c1O    inactive
O=C(OCc1ccccc1)c1ccc(O)cc1    inactive
NC(N)=Nc1nc(CSCC/C(N)=N/S(N)(=O)=O)cs1    inactive
CCC(C)(Oc1ccc(C2(c3ccc(OC(C)(CC)C(=O)O)cc3)CCCCC2)cc1)C(=O)O (configuration not stated)    inactive
CCCCCCCCCCCC[N+](C)(C)C    inactive

Problem: Lookup: activation / Bile acid receptor (Homo sapiens) / `Cc1cc(OCCOCC[N+](C)(C)Cc2ccccc2)ccc1C(C)(C)CC(C)(C)C`
Solution: inactive

Problem: Lookup: activation / Bile acid receptor (Homo sapiens) / `C=CS(=O)(=O)O`
Solution: inactive

Problem: Lookup: activation / Bile acid receptor (Homo sapiens) / `O=C(O)c1cccc(C(=O)O)c1`
Solution: inactive

----------
assayed.system: Estrogen receptor (Homo sapiens)
procedure.summary: qHTS assay to identify small molecule agonists of the estrogen receptor alpha (ER-alpha) signaling pathway using the BG1 cell line (AID 743079); note: nearly all actives have a fitted effect of over 20% in size; for activation: % is set by controls: 0 for no effect and ±100 for the full control effect
test.conditions: BG1Luc4E2 cells, ERE-luciferase agonist, 22 h; series mostly up to 70.3 µM
Inconclusive results are not listed. Activity calls are given as the source filed them. The call rests on the fitted dose curve; in most records, active means well fitted activation curve with a large enough effect in the repeat runs; inconclusive means weak or mixed curves, or effect the other way; inactive means no such curve, though single readings can be large or run the other way.
Choose one outcome from this list and give only that: active, inactive

Examples with answers:
C=CC(=O)OCCCCCCOC(=O)C=C    inactive
Cc1ccc(-c2cc(C(F)(F)F)nn2-c2ccc(S(N)(=O)=O)cc2)cc1    active
COc1ccc(Cc2cnc(N)nc2N)cc1OC    inactive
COc1nc(C)nc(Cl)c1NC1=NCCN1    inactive
CCCNC(C)C(=O)Nc1ccccc1C (stereo not drawn)    inactive
CCN(CC)C(=O)Nc1ccc(OCC(O)CNC(C)(C)C)c(C(C)=O)c1 (stereo not drawn)    inactive
CCOc1ccc2c(c1)C(C)=CC(C)(C)N2    inactive
CN1C(=O)c2ccc([N+](=O)[O-])cc2C1=O    inactive
c1ccc2c(c1)CCCC2C1=NCCN1 (stereo not drawn)    inactive
Cc1cccc(O)c1C    inactive

Problem: Please share the test call associated with `c1ccc2c(c1)-c1cccc3c1c-2cc1ccccc13` .
Solution: inactive

Problem: Please share the test call associated with `OCC(CO)N[C@H]1C[C@](O)(CO)[C@@H](O)[C@H](O)[C@H]1O` .
Solution: inactive

Problem: Please share the test call associated with `NC(N)=Nc1nc(CSCC/C(N)=N/S(N)(=O)=O)cs1` .
Solution: inactive

Problem: Please share the test call associated with `CCCCOCCOC(=O)c1ccccc1C(=O)OCCOCCCC` .
Solution: inactive

Problem: Please share the test call associated with `CCCCCCCCCCCCCCCCCl` .
Solution: inactive

Problem: Please share the test call associated with `O=C(O)CP(=O)(O)O` .
Solution: inactive

Problem: Please share the test call associated with `CC(C)CCOCc1ccccc1` .
Solution: inactive

Problem: Please share the test call associated with `CC(C)CCOC(=O)c1ccc(N(C)C)cc1` .
Solution: active

Problem: Please share the test call associated with `c1cnc2cc3c(cc2n1)C1CNCC3C1` .
Solution: inactive

Problem: Please share the test call associated with `C=CC(=O)OCCCCCCCC` .
Solution: inactive

Problem: Please share the test call associated with `CCOc1ccccc1C(N)=O` .
Solution: inactive

Problem: Please share the test call associated with `CC(C)(O)CCC(C)(C)O` .
Solution: inactive

Problem: Please share the test call associated with `CCN(CC)c1ccc2c(C)cc(=O)oc2c1` .
Solution: inactive

----------
procedure.summary: A CellTox Green Cytotoxicity Assay to monitor cytotoxicity in HepG2 cells - 32 hour (AID 1224883); note: % is set by controls: 0 for no effect and ±100 for the full control effect; nearly all actives have a fitted effect of over 50% in size
test.conditions: CellTox Green fluorescence; series mostly up to 76.8 µM
Records with an inconclusive call do not appear. The source made the active and inactive calls. Calls come from the whole dose curve; as a rule, active = well fitted activation curve with a large enough effect in the repeat runs; inconclusive = weak or mixed curves; inactive = flat fitted curve, though single readings scatter.
endpoint: outcome

Field: example entries. Status: answers known.
CCn1cc(C(=O)O)c(=O)c2cc(F)c(N3CCNC(C)C3)c(F)c21 (configuration not stated)    inactive
Cc1occc(=O)c1OC(=O)C(C)C    inactive
O=C1NCC2(CCN(CCc3ccccc3)CC2)O1    inactive
c1ccc2c(c1)-c1cccc3c1c-2cc1ccccc13    inactive
COc1ccc(Cc2cnc(N)nc2N)cc1OC    inactive

Problem: I'd like to know its outcome. The compound in question is CCCCCCC(O)CCCCCCCCCCC(=O)O (configuration not stated)
Solution: inactive

Problem: I'd like to know its outcome. The compound in question is CC(C(O)c1ccc(O)cc1)N1CCC(Cc2ccccc2)CC1 (configuration not stated)
Solution: inactive

----------
procedure.summary: qHTS assay for small molecules that induce genotoxicity in human embryonic kidney cells expressing luciferase-tagged ATAD5 (AID 651632); note: nearly all actives have a fitted effect of over 15% in size; for activation: % is set by controls: 0 for no effect and ±100 for the full control effect
test.conditions: HEK293T ATAD5-luciferase induction, 16 h; series mostly up to 83.3 µM
Results filed as inconclusive are left out. Activity calls are given as the source filed them. The call rests on the fitted dose curve; in most records, active means well fitted activation curve with a large enough effect in the repeat runs; inconclusive means weak or mixed curves; inactive means no such curve, though single readings can be large or run the other way.
Choose one outcome from this list and give only that: t for active, f for inactive

CCN(CC)C(=O)Nc1ccc(OCC(O)CNC(C)(C)C)c(C(C)=O)c1 (configuration not stated)    f
COc1cc(C(=S)N2CCOCC2)ccc1O    f
CC(=O)N[C@@H](CS)C(=O)O    f
NC(Cc1ccc(Cl)cc1)C(=O)O (configuration not stated)    f
Nc1cc(Cl)c(-c2cc(Cl)c(N)cc2Cl)cc1Cl    t

Next item in the queue.
Problem: Please share the test call associated with c1cc(C(c2ccc(OCC3CO3)cc2)C(c2ccc(OCC3CO3)cc2)c2ccc(OCC3CO3)cc2)ccc1OCC1CO1 (configuration not stated) .
Solution: f

----------
procedure.summary: qHTS assay for small molecule agonists of the p53 signaling pathway (AID 651631); note: nearly all actives have a fitted effect of over 15% in size
test.conditions: HCT-116 p53RE-bla reporter, beta-lactamase FRET ratio, 16 h; series mostly up to 73.3 µM
Results filed as inconclusive are left out. Active and inactive are the calls of the source. The call rests on the fitted dose curve.
Choose one outcome from this list and give only that: yes (1) (active), no (0) (inactive)

Examples with answers:
O=C(O)c1cn(-c2ccc(F)cc2)c2cc(N3CCNCC3)c(F)cc2c1=O    no (0)
C[N+]1([O-])CCOCC1    no (0)

Problem: Please share the test call associated with `O=Nc1ccc(Nc2ccccc2)cc1` .
Solution: yes (1)

Problem: Please share the test call associated with `CN1C(=O)c2ccc([N+](=O)[O-])cc2C1=O` .
Solution: no (0)

----------
procedure.summary: qHTS assay to identify small molecule antagonists of the estrogen receptor beta (ER-beta) signaling pathway - cell viability counter screen (AID 1259382);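 note: HEK293T cells carrying ER-beta-UAS-bla reporter stimulated with estradiol; % is set by controls: 0 for no effect and ±100 for the full control effect; nearly all actives have a fitted effect of over 55% in size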
test.conditions: ER-beta-UAS-bla HEK293T viability, CellTiter-Glo luminescence, 16 h; series mostly up to 92.4 µM
Records with an inconclusive call do not appear. Active and inactive are the calls of the source. Calls follow the shape of the dose curve; as a rule, active = well fitted cell-killing curve with a large enough effect in the repeat runs; inconclusive = weak or mixed curves; inactive = flat fitted curve, though single readings scatter.
Choose one outcome from this list and give only that: active, inactive

CCCN[C@H]1CCc2nc(N)sc2C1    inactive
CC(C)(c1ccccc1)c1ccc(Nc2ccc(C(C)(C)c3ccccc3)cc2)cc1    inactive
Cc1occc(=O)c1OC(=O)C(C)C    inactive
CCCCOCCOC(=O)c1ccccc1C(=O)OCCOCCCC    inactive
O=C(O[C@@H]1Cc2c(O)cc(O)cc2O[C@@H]1c1cc(O)c(O)c(O)c1)c1cc(O)c(O)c(O)c1    inactive
COc1ccc(COC(C)=O)cc1    inactive

Problem: Please share the test call associated with `CCOc1ccccc1C(N)=O` .
Solution: inactive

Problem: Please share the test call associated with `O=C1CC2(CCCC2)CC(=O)N1CCCCN1CCN(c2ncccn2)CC1` .
Solution: inactive

Problem: Please share the test call associated with `NC12CC3CC(CC(C3)C1)C2` .
Solution: inactive

----------
// max activation lookup, one value per entry
assayed.system: Nuclear receptor subfamily 1 group I member 2 (Rattus norvegicus)
procedure.summary: Rat pregnane X receptor (rPXR) activation by small molecules, qHTS assay (AID 1346983); note: % is set by controls: 0 for no effect and ±100 for the full control effect; nearly all actives have a fitted effect of over 20% in size
test.conditions: rPXR luciferase reporter cells, One-Glo luminescence, 24 h; active compounds read high
Description: National Center for Advancing Translational Sciences [NCATS] NIH Chemical Genomics Center [NCGC] U.S. Environmental Protection Agency [EPA] National Institutes of Environmental Health Sciences [NIEHS] National Toxicology Program [NTP] Assay overview: The Pregnane X receptor (PXR), a ligand activated nuclear receptor plays a critical role in the regulation of genes involved in drug metabolism and transporters. […]
Records with an inconclusive call do not appear.
Give your result in % as a bare value.

COc1nc(C)nc(Cl)c1NC1=NCCN1    -0.617

Problem: I'd like to know its max activation. The compound in question is `N[C@@H]1CONC1=O`
Solution: -2.48

Problem: I'd like to know its max activation. The compound in question is CC(C)(C)NCC(O)c1cc(O)cc(O)c1 (configuration not stated)
Solution: 3.93

Problem: I'd like to know its max activation. The compound in question is `[Cl][In]([Cl])[Cl]`
Solution: -5.91

Problem: I'd like to know its max activation. The compound in question is `CC(=O)OCC1=C(C(=O)O)N2C(=O)[C@@H](NC(=O)Cc3cccs3)[C@H]2SC1`
Solution: -1.19

Problem: I'd like to know its max activation. The compound in question is `CC(C)(C)NC(=O)[C@@H]1CN(Cc2cccnc2)CCN1C[C@@H](O)C[C@@H](Cc1ccccc1)C(=O)N[C@H]1c2ccccc2C[C@H]1O`
Solution: 4.92
